- TESTED_TARGET: canine PD-1 (canine)
- PROCEDURE_TEXT: ELISA on plate-bound tagged canine PD-1, Kd by the Bobrovnik method
Please respond with reported pKd for every item in the list.
Bear in mind: pKd is minus log10 of a mol/L concentration; give just that figure.

Returns the measured pKd for the input binder. Input: NAN15 (4B2) (VHH) VHH: QVQLQASGGGLVQPGEHLLLSCAASGFAFGIYTMGWYRQAPGKEREKVASISRTSDSWNYADSVKGRFTISRENAKNTLYLQMNSLKPEDTALYFCAKSRSAWNTDDIEYWGQGTQVG 8.60

Name the reported pKd value associated with the binder NAN4 (5A1) (VHH) VHH: QVQLQASGGGLVQPGGSLTLSCAASGSIDSILAMGWYRQGPGKQREFVASISWSGDITYYADSAKGRFTISRDNAKNTVYLQMNSLKPEDTAVYYCNAGPDMQISGPTDDYDYWGQGTQVG 8.15

Recorded pKd for NAN7/8 (5A5) (VHH) VHH: QVQLQASGGGLVEPGGSLRLSCAASGAIFRIAAMGWYRQAPGKERELVATITRGGSTNYADSVKGRFTISRDNAKNTAYLQMDSLKAEDTGVYYCNAGLWATTSANYWGQGTQVG , please? 8.30

Which pKd value belongs to NAN10 (4B4) (VHH) VHH: QVQLQASGGGLVQGGESLRLSCAASGRTVAEYTIGWYRQAPGKEREFVAGPSWHARGTSYLDSVKGRFTISRDNTKDTVYLQMNTLKPEDTAVYYCNADVNTDYSEYVEYWGQGTQVG ? 8.64
